Value source: patent US20250084058A1

- System: Plutella xylostella
- Test method notes: Activity determination of killing Plutella xylostella (Airbrush spray, cabbage leaf discs)
- Format: in vivo
- Condition details: foliar, 0.3125 mg/L, parallel comparative experiment, 3rd day after administration, read-out: Mortality (%, on 3rd day after administration) 0.3125 mg/L
Consider the following compounds; for each one, report its mortality at 0.3125 µg/mL.
One number for each entry, in %.

Consider the following illustrative entries.
O=C(c1cc(-c2cnn(-c3c(Cl)cc(C(F)(C(F)(F)F)C(F)(F)F)cc3Cl)c2)cnc1Cl)N(CC1CC1)C1CC1 ... 76.7
COCC(=O)N(C(=O)c1cc(-c2cnn(-c3c(Cl)cc(C(F)(C(F)(F)F)C(F)(F)F)cc3Cl)c2)cnc1Cl)C1CC1 ... 100

Plutella xylostella / mortality at 0.3125 µg/mL / COCC(=O)N(C(=O)c1cc(-c2cnn(-c3c(Cl)cc(C(F)(C(F)(F)F)C(F)(F)F)cc3Cl)c2)cnc1Cl)C1(C#N)CC1 : value? 100
